The measured values listed here are drawn from the supplement of paper PMC10567573.

# protein stability index per record follows
B1: LYSMD4 (parent)
chain: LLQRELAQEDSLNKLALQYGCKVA

variants of: B1; experiment: protein stability index of a GFP-peptide fusion (GPS, HEK-293T) (PSI 1-6); higher = more stable; settings: c terminus: a fixed tail appended;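 note: lentivirally expressed fusions sorted by FACS into six bins by GFP to DsRed ratio, PSI derived from sequencing read proportions per bin multiplied by bin number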
property_label: protein stability index

mutation_spec | property_label | observed
Q18M | protein stability index | 1.72
A7I | protein stability index | 2.63
A7K | protein stability index | 2.14
E5Y | protein stability index | 2.21
C21T | protein stability index | 3.03
L17H | protein stability index | 2.29
L15M | protein stability index | 2.85
G20S | protein stability index | 1.72
Y19Q | protein stability index | 3.78
A7V | protein stability index | 1.48
Q3G | protein stability index | 2.85
N13Q | protein stability index | 1.38
G20V | protein stability index | 1.31
A7E | protein stability index | 1.8
Q18A | protein stability index | 1.65
D10I | protein stability index | 1.04
